target: TrkB (Homo sapiens (Human), UniProt Q16620 32-430); experiment: koff of Fab at 25 C; T1/2=Log2/koff
Sequence (Q16620 32-430 limits assumed): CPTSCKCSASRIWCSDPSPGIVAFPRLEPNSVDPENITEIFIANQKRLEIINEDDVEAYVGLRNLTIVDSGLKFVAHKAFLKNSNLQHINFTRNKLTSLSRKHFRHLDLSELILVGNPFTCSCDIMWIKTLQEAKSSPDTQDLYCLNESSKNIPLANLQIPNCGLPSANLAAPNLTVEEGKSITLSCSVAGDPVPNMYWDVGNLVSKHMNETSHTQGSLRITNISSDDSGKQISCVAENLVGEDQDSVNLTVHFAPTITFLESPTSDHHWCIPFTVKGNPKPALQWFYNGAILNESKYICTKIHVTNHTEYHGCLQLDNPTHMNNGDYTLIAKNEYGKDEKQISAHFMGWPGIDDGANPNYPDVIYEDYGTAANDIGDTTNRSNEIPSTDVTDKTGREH
For each entry below, report its T1/2 value.
One number for each entry, in min.

query: T1/2 lookup needed for 4A6-12 (Fab, V domains shown, Fab) VH: QVQLVQSGAEVKKPGASVKVSCKASGYTFTNYDIIWVRQAPGQGLEWMGYINPYNRRRKYNEKFKGRVTMTRDTSTSTVYMELSSLRSEDTAVYYCARLLKYRRFRYYAIDYWGQGTTVTVSS VL: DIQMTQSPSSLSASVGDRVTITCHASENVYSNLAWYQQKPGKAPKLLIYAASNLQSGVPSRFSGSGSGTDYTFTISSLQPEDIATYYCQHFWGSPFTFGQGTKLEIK , thanks.
result: 74.2

// next item, T1/2 requested
query: Look up T1/2: 16-G9 (Fab, V domains shown, Fab) VH: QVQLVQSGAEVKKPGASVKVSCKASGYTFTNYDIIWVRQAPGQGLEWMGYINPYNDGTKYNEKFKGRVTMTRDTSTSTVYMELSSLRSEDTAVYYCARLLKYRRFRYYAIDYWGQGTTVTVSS VL: DIQMTQSPSSLSASVGDRVTITCRASENVYSNLAWYQQKPGKAPKLLIYAASNLQSGVPSRFSGSGSGTDFTFTISSLQPEDIATYYCQHFWYSPFGFGQGTKLEIK
result: 4

Just for reference, patent US20100196390A1 is where these values come from.
